The origin of these recorded values is ChEMBL document CHEMBL1938257.

Recorded measurements of IC50, one per entry
test.target: Beta-secretase 1 (Homo sapiens, UniProt P56817)
Sequence (P56817 whole entry): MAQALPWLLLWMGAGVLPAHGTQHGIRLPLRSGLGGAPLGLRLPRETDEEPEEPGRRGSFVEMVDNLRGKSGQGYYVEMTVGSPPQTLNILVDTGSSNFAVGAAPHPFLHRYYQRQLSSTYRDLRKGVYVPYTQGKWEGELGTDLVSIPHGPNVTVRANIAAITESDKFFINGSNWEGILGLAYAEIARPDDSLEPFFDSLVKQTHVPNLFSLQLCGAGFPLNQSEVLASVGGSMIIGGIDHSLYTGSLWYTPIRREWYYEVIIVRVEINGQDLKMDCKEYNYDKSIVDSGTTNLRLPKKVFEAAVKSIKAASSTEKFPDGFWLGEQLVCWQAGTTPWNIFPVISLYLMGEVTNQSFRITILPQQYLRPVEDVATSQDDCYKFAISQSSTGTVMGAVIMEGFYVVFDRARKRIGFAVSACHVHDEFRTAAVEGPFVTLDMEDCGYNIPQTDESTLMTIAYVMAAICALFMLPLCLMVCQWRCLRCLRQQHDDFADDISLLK
assay.method.text: Inhibition of recombinant BACE1 expressed in baculovirus system using M-2420 as substrate preincubated for 1 hr before substrate addition measured after 15 mins by spectrofluorometric analysis

compound: CCN(CCCCCCNC1=CC(=O)C(NCCCCCCN(CC)Cc2ccccc2OC)=CC1=O)Cc1ccccc1OC
test.target: Beta-secretase 1 (Homo sapiens, UniProt P56817)
IC50 [µM]: 4.6
--
compound: CCN(CCCCCCNC1=CC(=O)c2ccccc2C1=O)Cc1ccccc1OC
test.target: Beta-secretase 1 (Homo sapiens, UniProt P56817)
IC50 [µM]: 3
